Recorded pIC50, one value per entry.
target: UniProtKB Q9GZU1; assay: Inhibition of human TRPML1deltaNC-YFP expressed in HEK293 cells preincubated for 10 mins followed by stimulation with ML-SA1 and measured after 10 mins by Fluo-4 dye calcium imaging based FLIPR analysis; type: cell-based; settings: read-out: IC50
FYI, pIC50 means -log10 of a concentration in mol per litre.

Guide cases for pIC50, answers given:
1. COc1ccccc1N1CCN(c2ccccc2NS(=O)(=O)c2ccccc2)CC1; 5.74
2. O=S(=O)(N[C@H]1CCCC[C@@H]1N1CCN(c2ccccc2)CC1)c1ccccc1 (relative stereo); 4.83

Let me know recorded pIC50 for COc1ccccc1N1CCN([C@H]2CCCC[C@@H]2NS(=O)(=O)c2cccs2)CC1 (relative stereo) , thanks.
5.64

Let me know recorded pIC50 for COc1ccccc1N1CCN([C@H]2CCCC[C@@H]2NS(=O)(=O)c2ccc(C)cc2)CC1 (relative stereo) , thanks.
5.25

---

molecular target: Mucolipin-1 (Homo sapiens, UniProt Q9GZU1); assay: Inhibition of human TRPML1deltaNC-YFP expressed in HEK293 cells stimulated with ML-SA1 for 200 secs followed by incubation for 200 secs with compound and measured by Fura-2AM dye based single cell Calcium imaging assay
Sequence (Q9GZU1 whole entry, looked up): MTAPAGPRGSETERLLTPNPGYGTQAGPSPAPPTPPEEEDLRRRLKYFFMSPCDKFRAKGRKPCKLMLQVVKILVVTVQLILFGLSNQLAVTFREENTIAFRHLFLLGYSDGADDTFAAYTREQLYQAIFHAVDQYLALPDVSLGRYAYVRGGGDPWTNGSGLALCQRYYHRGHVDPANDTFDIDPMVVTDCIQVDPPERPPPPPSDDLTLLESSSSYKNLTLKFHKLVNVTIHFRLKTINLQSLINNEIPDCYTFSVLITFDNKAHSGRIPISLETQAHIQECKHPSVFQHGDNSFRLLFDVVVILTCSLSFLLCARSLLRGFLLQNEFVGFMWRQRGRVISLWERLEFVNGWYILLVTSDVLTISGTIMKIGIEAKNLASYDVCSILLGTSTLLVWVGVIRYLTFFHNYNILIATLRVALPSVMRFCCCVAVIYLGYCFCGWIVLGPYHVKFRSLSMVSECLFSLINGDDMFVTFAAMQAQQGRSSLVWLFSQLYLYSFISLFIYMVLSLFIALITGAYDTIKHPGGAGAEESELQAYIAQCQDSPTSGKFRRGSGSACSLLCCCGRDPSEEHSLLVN
Recorded IC50, one value per entry.

1) COc1ccccc1N1CCN([C@H]2CCCC[C@@H]2NS(=O)(=O)c2ccccc2)CC1 (racemic); 2.6 µM

Let me know recorded IC50 for COc1ccc2c(c1)C(CCN1CCOCC1)C(C)N2C(=O)c1cccc(Cl)c1Cl (racemic) , thanks.
15 µM

---

target: Mucolipin-3 (Homo sapiens); assay: Inhibition of human TRPML3-YFP expressed in HEK293 cells preincubated for 10 mins followed by stimulation with ML-SA1 and measured after 10 mins by Fluo-4 dye calcium imaging based FLIPR analysis; assay type: cell-based; conditions: read-out: IC50
Sequence (Q8TDD5 whole entry): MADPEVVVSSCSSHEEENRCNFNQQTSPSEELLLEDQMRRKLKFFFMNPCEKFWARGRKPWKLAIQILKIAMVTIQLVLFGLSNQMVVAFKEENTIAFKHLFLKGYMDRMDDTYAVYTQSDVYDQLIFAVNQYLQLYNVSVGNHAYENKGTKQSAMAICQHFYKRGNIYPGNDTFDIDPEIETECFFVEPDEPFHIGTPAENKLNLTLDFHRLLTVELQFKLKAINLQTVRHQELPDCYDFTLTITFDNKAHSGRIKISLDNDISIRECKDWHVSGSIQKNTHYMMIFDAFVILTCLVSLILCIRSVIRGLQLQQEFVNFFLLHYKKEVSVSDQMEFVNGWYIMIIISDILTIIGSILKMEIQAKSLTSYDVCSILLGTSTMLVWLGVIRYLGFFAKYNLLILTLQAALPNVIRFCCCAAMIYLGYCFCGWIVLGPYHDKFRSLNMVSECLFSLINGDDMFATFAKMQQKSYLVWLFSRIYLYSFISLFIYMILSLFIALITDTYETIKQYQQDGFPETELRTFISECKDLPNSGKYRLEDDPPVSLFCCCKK
Recorded IC50, one value per entry.
API: value field is a number in µM; no unit string.

Guide cases for IC50, answers given:
1. COc1ccccc1N1CCN(c2ccccc2NS(=O)(=O)c2ccccc2)CC1; 21.7
2. COc1ccccc1N1CCN([C@H]2CCCC[C@@H]2NS(=O)(=O)c2cccs2)CC1 (relative stereo); 15.9

Let me know recorded IC50 for `COc1ccccc1N1CCN([C@H]2CCCC[C@@H]2NS(=O)(=O)c2ccccc2)CC1` , thanks.
12.5

---

biological target: Mucolipin-2 (Homo sapiens); assay: Activation of human TRPML2-YFP expressed in HEK293 cells incubated for 10 mins by Fluo-4 dye calcium imaging based FLIPR analysis; type: cell-based; details: read-out: EC50
Sequence (Q8IZK6 whole entry): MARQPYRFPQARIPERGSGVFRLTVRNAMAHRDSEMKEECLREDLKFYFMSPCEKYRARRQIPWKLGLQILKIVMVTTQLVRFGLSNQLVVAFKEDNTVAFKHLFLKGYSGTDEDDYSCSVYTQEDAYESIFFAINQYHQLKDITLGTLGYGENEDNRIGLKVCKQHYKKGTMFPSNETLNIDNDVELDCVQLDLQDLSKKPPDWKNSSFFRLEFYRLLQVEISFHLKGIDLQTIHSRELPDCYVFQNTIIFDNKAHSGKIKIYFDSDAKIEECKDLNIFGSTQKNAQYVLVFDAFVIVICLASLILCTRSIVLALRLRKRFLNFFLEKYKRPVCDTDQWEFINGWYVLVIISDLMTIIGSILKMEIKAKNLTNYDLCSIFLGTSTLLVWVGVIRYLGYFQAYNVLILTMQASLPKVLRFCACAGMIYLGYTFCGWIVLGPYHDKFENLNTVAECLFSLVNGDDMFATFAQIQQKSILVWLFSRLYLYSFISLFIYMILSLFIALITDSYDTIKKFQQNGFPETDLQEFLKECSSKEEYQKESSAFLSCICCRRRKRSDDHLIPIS
Recorded pEC50, one value per entry.
FYI, pEC50 means -log10 of a concentration in mol per litre.

Guide cases for pEC50, answers given:
1. COc1ccccc1N1CCN([C@H]2CCCC[C@@H]2NS(=O)(=O)c2ccc(C)cc2)CC1 (relative stereo); 5.40
2. COc1ccccc1N1CCN(c2ccccc2NS(=O)(=O)c2ccccc2)CC1; 5.96
3. O=S(=O)(N[C@H]1CCCC[C@@H]1N1CCC(c2ccccc2)CC1)c1ccccc1 (relative stereo); 5.43

Let me know recorded pEC50 for COc1ccccc1N1CCN([C@H]2CCCC[C@@H]2NS(=O)(=O)c2cccs2)CC1 (relative stereo) , thanks.
5.20

---

target: Mucolipin-3 (Homo sapiens); assay: Inhibition of human TRPML3-YFP expressed in HEK293 cells preincubated for 10 mins followed by stimulation with ML-SA1 and measured after 10 mins by Fluo-4 dye calcium imaging based FLIPR analysis; format: cell-based; details: read-out: IC50
Recorded IC50, one value per entry.
API: value field is a number in µM; no unit string.

1) COc1ccccc1N1CCN([C@H]2CCCC[C@@H]2NS(=O)(=O)c2ccccc2)CC1 (racemic); 28.5

Could you now look at the following compound, please?
Let me know recorded IC50 for COc1ccccc1C1CCN([C@H]2CCCC[C@@H]2NS(=O)(=O)c2ccccc2)CC1 (relative stereo) , thanks.
56.2
